Target: P-selectin (Homo sapiens)
Experiment: Inhibition of sLex binding to P-selectin at 500 uM relative to control by glyco-ELISA assay
For each entry below, report its inhibition value.
# unit: % | format: bare number

Given item CCCCCCCCCCOc1cccc(OCCCCCC(=O)N(Cc2ccc(C(=O)OC)cc2)c2ccc(C(=O)OC)cc2)c1 , the value recorded as its inhibition is 78

Given item CCCCCCCCCCOc1cc(OCCCCCCCCCC)cc(OCCCCCC(=O)N(Cc2ccc(C(=O)O)cc2)c2cccc(C(=O)O)c2)c1 , the value recorded as its inhibition is 95

Given item CCCCCCCCCCOc1cccc(OCCCCCC(=O)N(Cc2ccc(C(=O)OC)cc2)c2cccc(C(=O)OC)c2)c1 , the value recorded as its inhibition is 79

Given item CCCCCCCCCCOc1cc(OCCCCCCCCCC)cc(OCCCCCC(=O)N(c2ccc(C(=O)OC)cc2)c2ccc(C(=O)OC)cc2)c1 , the value recorded as its inhibition is 16

Given item CCCCCCCCCCOc1cc(OCCCCCCCCCC)cc(OCCCCCCO/N=C(/c2ccc(C(=O)O)cc2)c2cccc(C(=O)O)c2)c1 , the value recorded as its inhibition is 34

Given item CCCCCCCCCCOc1cccc(OCCCCCC(=O)N(Cc2ccc(C(=O)O)cc2)c2cccc(C(=O)O)c2)c1 , the value recorded as its inhibition is 103

Given item CCCCCCCCCCOc1cc(OCCCCCCCCCC)cc(OCCCCCCON=C(c2ccc(C(=O)O)cc2)c2ccc(C(=O)O)cc2)c1 , the value recorded as its inhibition is 2

----------
For each entry below, report its inhibition value.
Biological target: L-selectin (Homo sapiens) (UniProt P14151)
Sequence (whole entry): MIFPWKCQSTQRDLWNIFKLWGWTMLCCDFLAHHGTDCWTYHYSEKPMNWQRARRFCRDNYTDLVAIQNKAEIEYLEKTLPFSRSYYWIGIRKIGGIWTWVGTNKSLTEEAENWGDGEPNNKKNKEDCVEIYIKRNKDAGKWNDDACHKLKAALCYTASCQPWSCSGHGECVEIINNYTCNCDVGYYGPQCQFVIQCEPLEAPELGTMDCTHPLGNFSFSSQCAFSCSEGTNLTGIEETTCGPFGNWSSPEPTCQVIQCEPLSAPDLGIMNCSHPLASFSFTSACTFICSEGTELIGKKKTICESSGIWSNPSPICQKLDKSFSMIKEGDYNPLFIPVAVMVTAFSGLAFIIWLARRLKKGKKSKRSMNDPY
Experiment: Inhibition of sLex binding to L-selectin at 500 uM relative to control by glyco-ELISA assay
# unit: % | format: bare number

Given item CCCCCCCCCCOc1cc(OCCCCCCCCCC)cc(OCCCCCCO/N=C(/c2ccc(C(=O)O)cc2)c2cccc(C(=O)O)c2)c1 , the value recorded as its inhibition is 50

Given item CCCCCCCCCCOc1cc(OCCCCCCCCCC)cc(OCCCCCCON=C(c2ccc(C(=O)O)cc2)c2ccc(C(=O)O)cc2)c1 , the value recorded as its inhibition is 6

Given item CCCCCCCCCCOc1cccc(OCCCCCC(=O)N(Cc2ccc(C(=O)OC)cc2)c2ccc(C(=O)OC)cc2)c1 , the value recorded as its inhibition is 75

Given item CCCCCCCCCCOc1cc(OCCCCCCCCCC)cc(OCCCCCC(=O)N(Cc2ccc(C(=O)O)cc2)c2ccc(C(=O)O)cc2)c1 , the value recorded as its inhibition is 50

Given item CCCCCCCCCCOc1cc(OCCCCCCCCCC)cc(OCCCCCCN(c2ccc(C(=O)O)cc2)c2ccc(C(=O)O)cc2)c1 , the value recorded as its inhibition is 82

Given item O=C(O)c1ccc(N(C(=O)CCCCCBr)c2cccc(C(=O)O)c2)cc1 , the value recorded as its inhibition is 5

Given item CCCCCCCCCCOc1cc(OCCCCCCCCCC)cc(OCCCCCC(=O)N(c2ccc(C(=O)OC)cc2)c2ccc(C(=O)OC)cc2)c1 , the value recorded as its inhibition is 16

Given item CCCCCCCCCCOc1cc(OCCCCCCCCCC)cc(OCCCCCCON=C(c2ccc(Cl)cc2)c2ccc(Cl)cc2)c1 , the value recorded as its inhibition is 5

Given item CCCCCCCCCCOc1cccc(OCCCCCC(=O)N(Cc2ccc(C(=O)O)cc2)c2cccc(C(=O)O)c2)c1 , the value recorded as its inhibition is 103

Given item O=C(O)c1ccc(N(C(=O)CCCCCBr)c2ccc(C(=O)O)cc2)cc1 , the value recorded as its inhibition is 6

Given item CCCCCCCCCCOc1cc(OCCCCCCCCCC)cc(OCCCCCC(=O)N(Cc2ccc(C(=O)OC)cc2)c2ccc(C(=O)OC)cc2)c1 , the value recorded as its inhibition is 26

Given item CCCCCCCCCCOc1cc(OCCCCCCCCCC)cc(OCCCCCC(=O)N(c2ccc(C(=O)OC)cc2)c2ccc(C(=O)OC)c(C(=O)OC)c2)c1 , the value recorded as its inhibition is 95

Given item CCCCCCCCCCOc1cccc(OCCCCCC(=O)N(Cc2ccc(C(=O)OC)cc2)c2cccc(C(=O)OC)c2)c1 , the value recorded as its inhibition is 86

Given item CCCCCCCCCCOc1cc(OCCCCCCCCCC)cc(OCCCCCC(=O)N(Cc2ccc(C(=O)O)cc2)c2cccc(C(=O)O)c2)c1 , the value recorded as its inhibition is 92

Given item CCCCCCCCCCOc1cc(OCCCCCCCCCC)cc(OCCCCCC(=O)N(c2ccc(C(=O)O)cc2)c2cccc(C(=O)O)c2)c1 , the value recorded as its inhibition is 53
